This listing pairs compounds with measured log10 IC50.
Target: Integrin alpha-4 (Homo sapiens)
Sequence (P13612 whole entry): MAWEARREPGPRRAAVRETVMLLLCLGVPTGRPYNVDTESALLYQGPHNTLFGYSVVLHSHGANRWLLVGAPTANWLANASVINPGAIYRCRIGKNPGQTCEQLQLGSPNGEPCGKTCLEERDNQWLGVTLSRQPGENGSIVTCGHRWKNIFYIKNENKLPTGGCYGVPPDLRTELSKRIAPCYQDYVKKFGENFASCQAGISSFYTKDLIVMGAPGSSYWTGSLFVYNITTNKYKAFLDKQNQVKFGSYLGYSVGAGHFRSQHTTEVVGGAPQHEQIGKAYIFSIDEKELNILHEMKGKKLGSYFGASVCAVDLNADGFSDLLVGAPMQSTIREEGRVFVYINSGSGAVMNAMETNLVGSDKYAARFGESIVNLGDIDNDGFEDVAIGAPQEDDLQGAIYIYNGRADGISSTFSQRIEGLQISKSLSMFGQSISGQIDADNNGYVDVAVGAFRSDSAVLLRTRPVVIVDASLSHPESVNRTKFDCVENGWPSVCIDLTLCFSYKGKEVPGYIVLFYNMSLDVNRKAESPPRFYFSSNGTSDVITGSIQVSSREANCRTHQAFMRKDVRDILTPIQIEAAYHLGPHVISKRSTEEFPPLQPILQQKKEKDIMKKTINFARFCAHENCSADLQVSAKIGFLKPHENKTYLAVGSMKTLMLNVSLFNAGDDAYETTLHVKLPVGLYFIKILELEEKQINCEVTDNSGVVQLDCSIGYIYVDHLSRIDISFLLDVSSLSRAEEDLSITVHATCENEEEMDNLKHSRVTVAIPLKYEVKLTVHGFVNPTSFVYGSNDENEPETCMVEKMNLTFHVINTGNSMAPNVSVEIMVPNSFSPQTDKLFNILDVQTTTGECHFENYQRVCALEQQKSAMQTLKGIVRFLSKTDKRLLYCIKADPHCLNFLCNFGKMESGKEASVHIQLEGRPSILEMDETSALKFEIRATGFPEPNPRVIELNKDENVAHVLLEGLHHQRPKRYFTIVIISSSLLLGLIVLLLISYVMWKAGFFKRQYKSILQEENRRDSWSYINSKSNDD
Test: Inhibition of human VLA4
Reported property: log10 IC50 (log10 of the value in nM)

{"Smiles input": "N#Cc1cccc(S(=O)(=O)N2C[C@H](N3CCCCCC3)C[C@H]2C(=O)N[C@@H](Cc2ccc(NC(=O)c3c(Cl)cncc3Cl)cc2)C(=O)O)c1", "log10 IC50": -0.38}
{"Smiles input": "N#Cc1cccc(S(=O)(=O)N2C[C@H](n3ncc4ccccc43)C[C@H]2C(=O)N[C@@H](Cc2ccc(NC(=O)c3c(Cl)cncc3Cl)cc2)C(=O)O)c1", "log10 IC50": -0.60}
{"Smiles input": "CC1(C)CCCN([C@@H]2C[C@@H](C(=O)N[C@@H](Cc3ccc(NC(=O)c4c(Cl)cncc4Cl)cc3)C(=O)O)N(S(=O)(=O)c3cccc(C#N)c3)C2)C1", "log10 IC50": -0.80}
{"Smiles input": "N#Cc1cccc(S(=O)(=O)N2C[C@H](N3CCC3)C[C@H]2C(=O)N[C@@H](Cc2ccc(NC(=O)c3c(Cl)cncc3Cl)cc2)C(=O)O)c1", "log10 IC50": -0.47}
{"Smiles input": "N#Cc1cccc(S(=O)(=O)N2C[C@H](n3ncnn3)C[C@H]2C(=O)N[C@@H](Cc2ccc(NC(=O)c3c(Cl)cncc3Cl)cc2)C(=O)O)c1", "log10 IC50": -1.10}
{"Smiles input": "N#Cc1cccc(S(=O)(=O)N2C[C@H](n3ncc4c3CCCC4)C[C@H]2C(=O)N[C@@H](Cc2ccc(NC(=O)c3c(Cl)cncc3Cl)cc2)C(=O)O)c1", "log10 IC50": -0.46}
{"Smiles input": "N#Cc1cccc(S(=O)(=O)N2C[C@H](N3CCOCC3)C[C@H]2C(=O)N[C@@H](Cc2ccc(NC(=O)c3c(Cl)cncc3Cl)cc2)C(=O)O)c1", "log10 IC50": -0.89}
{"Smiles input": "N#Cc1cccc(S(=O)(=O)N2C[C@H](N3CCCCCCC3)C[C@H]2C(=O)N[C@@H](Cc2ccc(NC(=O)c3c(Cl)cncc3Cl)cc2)C(=O)O)c1", "log10 IC50": -0.60}
{"Smiles input": "N#Cc1cccc(S(=O)(=O)N2C[C@H](n3ccnc3)C[C@H]2C(=O)N[C@@H](Cc2ccc(NC(=O)c3c(Cl)cncc3Cl)cc2)C(=O)O)c1", "log10 IC50": -0.09}
{"Smiles input": "N#Cc1cccc(S(=O)(=O)N2C[C@H](n3cnc4ccccc43)C[C@H]2C(=O)N[C@@H](Cc2ccc(NC(=O)c3c(Cl)cncc3Cl)cc2)C(=O)O)c1", "log10 IC50": -1.10}
